tested on: P388 leukemia ip, CD2F1 mice, survival T/C; assay: NCI In Vivo Anticancer Drug Screen. Data for tumor model P388 Leukemia (intraperitoneal) in CD2F1 (CDF1) mice; details: endpoint: median survival time; dose: 50.0 mg/kg/injection; schedule: Q01DX009 (ip); vehicle: distilled water + Tween-80; higher = longer survival
Inconclusive results and toxic doses are left out.
Quick reference: T/C of the listed items.

The examples below pair each entry with its known result.
[
  {
    "compound": "Oc1c(Br)cc(Br)cc1/C=N/NC(=S)N/N=C/c1cc(Br)cc(Br)c1O",
    "experimental.endpoint": "T/C",
    "measured": "118 % of control"
  },
  {
    "compound": "CNC(=O)OCc1nn(-c2ccc(OC)cc2)c(C)c1COC(=O)NC",
    "experimental.endpoint": "T/C",
    "measured": "90 % of control"
  },
  {
    "compound": "O=C(CN(OC(=O)c1ccccc1)C(=O)c1ccccc1)OCc1ccccc1",
    "experimental.endpoint": "T/C",
    "measured": "99 % of control"
  },
  {
    "compound": "COC1OCC(NC(=O)CNC(=O)CCCCCCCCCCCCC(C)C)C(O)C1O (stereo not given)",
    "experimental.endpoint": "T/C",
    "measured": "104 % of control"
  }
]

Proceed to the following item.
Known value: P388 leukemia ip, CD2F1 mice, survival T/C T/C of the compound COc1ccc(Cl)cc1C equals 98 % of control

---

tested on: P388 leukemia ip, CD2F1 mice, survival T/C; assay: NCI In Vivo Anticancer Drug Screen. Data for tumor model P388 Leukemia (intraperitoneal) in CD2F1 (CDF1) mice; conditions: endpoint: median survival time; dose: 12.5 mg/kg/injection; schedule: Q01DX005 (ip); vehicle: saline
Toxic doses and inconclusive results are not listed. How the source made its calls: active means survival T/C of 150% or more; inactive means T/C below 125% in these data.
The reply should be one of these categories: 1 = active, 0 = inactive

Worked cases, answers included:
[
  {
    "compound": "CS(=O)(=O)CS(=O)(=O)OCCF",
    "tested.target": "P388 leukemia ip, CD2F1 mice, survival T/C",
    "assigned.label": 1
  },
  {
    "compound": "CC1C2CCC3C4CC=C5CC(N(C)C)CCC5(C)C4CCC32CN1C (configuration not stated)",
    "tested.target": "P388 leukemia ip, CD2F1 mice, survival T/C",
    "assigned.label": 0
  },
  {
    "compound": "CCCCN(CCCC)C(=N)c1ccc(OC)c(OC)c1",
    "tested.target": "P388 leukemia ip, CD2F1 mice, survival T/C",
    "assigned.label": 0
  },
  {
    "compound": "CCCCC(C)N(CCNc1cc(OC)cc2cccnc12)CC(C)C (configuration not stated)",
    "tested.target": "P388 leukemia ip, CD2F1 mice, survival T/C",
    "assigned.label": 0
  },
  {
    "compound": "CN1C2C=C(c3ccc(Cl)cc3)CC1CC2 (configuration not stated)",
    "tested.target": "P388 leukemia ip, CD2F1 mice, survival T/C",
    "assigned.label": 0
  }
]

Lookup: Lab log entry: C#CCN1CCCCC1 — outcome as called in the assay?
Found: 0

Lookup: Lab log entry: CC1=CC(C)(C)N=C(N)N1 — outcome as called in the assay?
Found: 0

Origin of values: PubChem BioAssay AID330
